Source listed as the SangsterLogP compilation.

assay_overview: method code SF-HPLC, from DOI: 10.1016/0378-5173(94)00315-v
recorded_conditions: pH 7.4
assay_endpoint: logD
Answers are plain numbers.

Consider the worked cases shown below.
CCN(CC)C(=O)COC(=O)Cc1ccc2cc(OC)ccc2c1    3.05
CCNC(=O)COC(=O)Cc1ccc2cc(OC)ccc2c1    2.65
COc1ccc2cc(CC(=O)OCC(=O)NC3CCCCC3)ccc2c1    3.99
C=CCN(CC=C)C(=O)COC(=O)Cc1ccc2cc(OC)ccc2c1    3.67
COc1ccc2cc(CC(=O)OCC(=O)NC(C)(C)C)ccc2c1    3.6

[ask] For the compound CNC(=O)COC(=O)Cc1ccc2cc(OC)ccc2c1 , give its measured logD value.
[reply] 2.19

* * *

Provide the recorded logD for the entries that follow.
assay_overview: method code SF-HPLC, from DOI: 10.1016/0378-5173(94)00315-v
recorded_conditions: pH 7.4
Answers are plain numbers.

// below: answered compounds
COc1ccc2cc(CC(=O)OCC(=O)N3CCCC3)ccc2c1    2.71
CCCN(CCC)C(=O)COC(=O)Cc1ccc2cc(OC)ccc2c1    4.04

Go through the items and report each one's logD.
1. CCN(CCO)C(=O)COC(=O)Cc1ccc2cc(OC)ccc2c1
2. CCC(C)NC(=O)COC(=O)Cc1ccc2cc(OC)ccc2c1 (configuration not stated)
3. COc1ccc2cc(CC(=O)OCC(=O)N3CCOCC3)ccc2c1

[reply]
[1.98, 3.31, 2.13]

* * *

I'd be grateful if you could share measured logD for these entries.
assay_overview: method code SF-HPLC, from DOI: 10.1016/0378-5173(94)00315-v
recorded_conditions: pH 7.4
Numbers only.

Example compounds with recorded logD:
CCCNC(=O)COC(=O)Cc1ccc2cc(OC)ccc2c1    3.1
COc1ccc2cc(CC(=O)OCC(N)=O)ccc2c1    1.88

Report logD for each item below.
1. COc1ccc2cc(CC(=O)OCC(=O)N(CCO)CCO)ccc2c1
2. COc1ccc2cc(CC(=O)OCC(=O)NC(C)C)ccc2c1
3. CCCCNC(=O)COC(=O)Cc1ccc2cc(OC)ccc2c1

[reply]
1: 1.41; 2: 2.89; 3: 3.57

For each of the compounds below, state logD.
1. COc1ccc2cc(CC(=O)OCC(=O)N(C)CCO)ccc2c1
2. COc1ccc2cc(CC(=O)OCC(=O)N(C)C)ccc2c1

[reply]
1: 1.58; 2: 2.23
